Molecular target: Death-associated protein kinase 3 (Homo sapiens)
ΔTm below 0.3 °C gives 0; ΔTm at or above it gives 1.

# molecule, answerLabel
data = [
    ("C#Cc1cccc(Nc2ncnc3cc(OCCOC)c(OCCOC)cc23)c1", 1),
    ("N#C/C(=C(/N)Sc1ccc(N)cc1)c1ccccc1C(F)(F)F", 0),
    ("C=CNC#N", 0),
]

Quick check, ΔTm >= 0.3 °C? Nc1n[nH]c2nc3ccccc3nc12 [QUINOXALINE1]
1

Given the entry O=c1cc(N2CCOCC2)oc2c1ccc1ccccc12 , answer whether its ΔTm meets or surpasses 0.3 °C.
1

Can O=C1Nc2ccccc2/C1=C\c1ccc[nH]1 be said to have ΔTm at or above 0.3 °C?
0

Does ΔTm meet or surpass 0.3 °C for O=C1c2ccccc2-[n+]2ccc3c([nH]c4ccccc43)c21 [FASCAPLYSIN CHLORIDE] ?
0

Could you please find out whether NC1=NC(=O)/C(=C2\CCNC(=O)c3[nH]c(Br)cc32)N1 [HYMENIALDISINE] has ΔTm that meets 0.3 °C or exceeds it?
1

Answer whether ΔTm of CCOc1cc2ncnc(Nc3cccc(Br)c3)c2cc1OCC is greater than or equal to 0.3 °C.
1

Say whether Cc1nc(N)sc1-c1ccnc(Nc2cccc([N+](=O)[O-])c2)n1 shows ΔTm of 0.3 °C or more.
1

Decide: is the reported value of ΔTm for O=c1cc(-c2ccc(O)cc2)oc2cc(O)cc(O)c12 equal to or greater than 0.3 °C?
1
